Recorded pIC50, one value per entry.
# Target Of Assay: TYK2 JH2 domain (Homo sapiens (Human), UniProt P29597)
# Sequence (P29597 589-875): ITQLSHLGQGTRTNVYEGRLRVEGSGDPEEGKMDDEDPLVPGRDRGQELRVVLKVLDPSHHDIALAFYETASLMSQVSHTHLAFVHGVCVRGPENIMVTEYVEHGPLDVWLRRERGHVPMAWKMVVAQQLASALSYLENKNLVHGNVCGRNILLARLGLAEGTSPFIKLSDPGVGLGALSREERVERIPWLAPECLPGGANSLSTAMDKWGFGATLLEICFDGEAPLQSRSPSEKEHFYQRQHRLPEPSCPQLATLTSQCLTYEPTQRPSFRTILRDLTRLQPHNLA
# Experiment Notes: TYK2 JH2 domain FRET tracer assay
# Protocol Conditions: FRET 665/615 nm; read-out: Inhibition activity IC50 on TYK2 JH2 domain
pIC50: −log10 of the molar value.

{"Compound": "CCONC(=O)c1cnc(Nc2cc(C)nc(C)n2)cc1Nc1cc(F)c(C2CC2)cc1N(C)S(C)(=O)=O", "pIC50": 10.05}
{"Compound": "CCONC(=O)c1cnc(Nc2cc(C)nc(C)n2)cc1Nc1ccc(C(F)(F)F)cc1N(C)S(C)(=O)=O", "pIC50": 10.22}
{"Compound": "CCONC(=O)c1cnc(Nc2cc(C)nc(C)n2)cc1Nc1cc(F)cc(-c2cnc(C)cn2)c1OC", "pIC50": 10.05}
{"Compound": "CCONC(=O)c1cnc(NC(=O)C2CC2(F)F)cc1Nc1ccc(C2CC2)cc1N(C)S(C)(=O)=O (stereo not drawn)", "pIC50": 9.92}
{"Compound": "CCONC(=O)c1cnc(Nc2cc(C)nc(C)n2)cc1Nc1ccc(C2CC2)cc1N(C)S(C)(=O)=O", "pIC50": 10.30}
{"Compound": "CCONC(=O)c1cnc(Nc2cc(C)nc(C)n2)cc1Nc1cc(F)c(C(C)C)cc1N(C)S(C)(=O)=O", "pIC50": 10.30}
{"Compound": "CCONC(=O)c1cnc(NC(=O)C2CC2)cc1Nc1cccc(-c2ncc(Cl)cn2)c1OC", "pIC50": 9.89}
{"Compound": "CCONC(=O)c1cnc(Nc2cc(C)nc(C)n2)cc1Nc1cccc(-c2ncccn2)c1OC", "pIC50": 10.30}
{"Compound": "CCONC(=O)c1cnc(Nc2cc(C)nc(C)n2)cc1Nc1cc(F)c(Cl)cc1N(C)S(C)(=O)=O", "pIC50": 10.10}
{"Compound": "CCONC(=O)c1cnc(Nc2cc(C)nc(C)n2)cc1Nc1ccc(Cl)cc1N(C)S(C)(=O)=O", "pIC50": 10.15}
{"Compound": "CCONC(=O)c1cnc(Nc2ccnc(C)n2)cc1Nc1cc(F)c(C2CC2)cc1N(C)S(C)(=O)=O", "pIC50": 10.10}
{"Compound": "CCONC(=O)c1cnc(Nc2cc(C)nc(C)n2)cc1Nc1cc(F)cc(-c2ncn(C3CC3)n2)c1OC", "pIC50": 10.22}

====

# Experiment Notes: In-vivo pharmacokinetic test in mice
# Protocol Conditions: mouse, po; BALB/c female mice, gavage 10 mg/kg, plasma

{"Compound": "CCONC(=O)c1cnc(Nc2cc(C)nc(C)n2)cc1Nc1cccc(-c2ncc(C)cn2)c1OC [Example 238]", "Cmax / µM": 15.1}
{"Compound": "CCONC(=O)c1cnc(Nc2cc(C)nc(C)n2)cc1Nc1cccc(-c2cnc(C)cn2)c1OC [Example 213]", "Cmax / µM": 18}
{"Compound": "CCONC(=O)c1cnc(Nc2cc(C)nc(C)n2)cc1Nc1cc(F)cc(-c2cnc(C)cn2)c1OC [Example 214]", "Cmax / µM": 9.21}

====

# Tested on: EPO-induced JAK2 signal pathway
# Experiment Notes: EPO-induced proliferation of UT-7 cells (JAK2 signal)
# Assay type: cell-based, human
# Protocol Conditions: Homo sapiens, UT7; UT-7 cell proliferation, EPO 10 ng/mL, 72 hours; read-out: Inhibition activity IC50 on EPO-induced JAK2 signal pathway
# Procedure: The cytokine EPO, i.e. erythropoietin, can promote the proliferation and division of erythroid progenitor cells, and the signal pathway induced by EPO coupling with its receptor is mediated by JAK2-STAT5. Human promegakaryocytic leukemia cell line UT-7 was commercially available from Cell Resource Center, Institute of Basic Medicine, Chinese Academy of Medical Sciences. […] The inhibition rate of the tested compound on EPO-induced cell proliferation was calculated using Microsoft Excel. […]
Overview of recorded IC50 for various compounds

{"Compound": "CONC(=O)c1c(Nc2ccc(C3CC3)cc2N(C)S(C)(=O)=O)cc(Nc2cccc(F)n2)nc1C", "Target Of Assay": "EPO-induced JAK2 signal pathway", "IC50": "> 10 µM"}
{"Compound": "CCONC(=O)c1cnc(NC(=O)C2CC2)cc1Nc1cc(F)cc(-c2ncc(F)cn2)c1OC", "Target Of Assay": "EPO-induced JAK2 signal pathway", "IC50": "> 10 µM"}
{"Compound": "CONC(=O)c1cnc(NC(=O)C2CC2)cc1Nc1cccc(C2CC2)c1N(C)S(C)(=O)=O", "Target Of Assay": "EPO-induced JAK2 signal pathway", "IC50": "> 10 µM"}
{"Compound": "CCONC(=O)c1cnc(Nc2cnccn2)cc1Nc1cc(F)c(C2CC2)cc1N(C)S(C)(=O)=O", "Target Of Assay": "EPO-induced JAK2 signal pathway", "IC50": "> 10 µM"}
{"Compound": "CCONC(=O)c1cnc(Nc2cc(C)nc(C)n2)cc1Nc1ccc(-c2ccnn2C)cc1OC", "Target Of Assay": "EPO-induced JAK2 signal pathway", "IC50": "> 10 µM"}
{"Compound": "CCONC(=O)c1cnc(NC(=O)C2CC2)cc1Nc1cc(F)cc(-c2ncn(C3CC3)n2)c1OC", "Target Of Assay": "EPO-induced JAK2 signal pathway", "IC50": "> 10 µM"}
{"Compound": "CCONC(=O)c1cnc(Nc2cc(C)nc(C)n2)cc1Nc1ccc(OC)cc1N(C)S(C)(=O)=O", "Target Of Assay": "EPO-induced JAK2 signal pathway", "IC50": "> 10 µM"}
{"Compound": "CCONC(=O)c1cnc(Nc2ccc(OC)cc2)cc1Nc1ccc(Cl)cc1N(C)S(C)(=O)=O", "Target Of Assay": "EPO-induced JAK2 signal pathway", "IC50": "> 10 µM"}
{"Compound": "CCONC(=O)c1cnc(Nc2cccc(C)n2)cc1Nc1ccc(C2CC2)cc1N(C)S(C)(=O)=O", "Target Of Assay": "EPO-induced JAK2 signal pathway", "IC50": "> 10 µM"}
{"Compound": "CCONC(=O)c1cnc(Nc2ccnc(C)n2)cc1Nc1ccc(C2CC2)cc1N(C)S(C)(=O)=O", "Target Of Assay": "EPO-induced JAK2 signal pathway", "IC50": "> 10 µM"}
{"Compound": "CCONC(=O)c1cnc(Nc2ccc(F)nc2C)cc1Nc1ccc(C2CC2)cc1N(C)S(C)(=O)=O", "Target Of Assay": "EPO-induced JAK2 signal pathway", "IC50": "> 10 µM"}
{"Compound": "CCONC(=O)c1cnc(Nc2cc(C)nc(C)n2)cc1Nc1cccc(-c2cnc(C)cn2)c1OC", "Target Of Assay": "EPO-induced JAK2 signal pathway", "IC50": "> 10 µM"}
{"Compound": "CCONC(=O)c1cnc(Nc2ncccn2)cc1Nc1cc(F)c(C2CC2)cc1N(C)S(C)(=O)=O", "Target Of Assay": "EPO-induced JAK2 signal pathway", "IC50": "> 10 µM"}
{"Compound": "CONC(=O)c1cnc(Nc2cccc(F)n2)cc1Nc1cccc(C2CC2)c1N(C)S(C)(=O)=O", "Target Of Assay": "EPO-induced JAK2 signal pathway", "IC50": "> 10 µM"}
{"Compound": "N#CC[C@H](C1CCCC1)n1cc(-c2ncnc3[nH]ccc23)cn1 [ruxolitinib, reference compound]", "Target Of Assay": "EPO-induced JAK2 signal pathway", "IC50": "< 0.1 µM"}
{"Compound": "CCONC(=O)c1cnc(Nc2cc(C)nc(C)n2)cc1Nc1ccc(N2CCOCC2)cc1N(C)S(C)(=O)=O", "Target Of Assay": "EPO-induced JAK2 signal pathway", "IC50": "> 10 µM"}
{"Compound": "CCONC(=O)c1cnc(Nc2ccc(F)nc2)cc1Nc1ccc(C2CC2)cc1N(C)S(C)(=O)=O", "Target Of Assay": "EPO-induced JAK2 signal pathway", "IC50": "> 10 µM"}
{"Compound": "CCONC(=O)c1cnc(Nc2cc(C)nc(C)c2)cc1Nc1ccc(C2CC2)cc1N(C)S(C)(=O)=O", "Target Of Assay": "EPO-induced JAK2 signal pathway", "IC50": "> 10 µM"}
{"Compound": "C#Cc1ccc(Nc2cc(Nc3cccc(F)n3)ncc2C(=O)NOC)c(N(C)S(C)(=O)=O)c1", "Target Of Assay": "EPO-induced JAK2 signal pathway", "IC50": "> 10 µM"}
{"Compound": "CONC(=O)c1nnc(NC(=O)C2CC2)cc1Nc1cccc(-c2ncn(C)n2)c1OC", "Target Of Assay": "EPO-induced JAK2 signal pathway", "IC50": "> 10 µM"}
{"Compound": "CONC(=O)c1cnc(Nc2cc(C)c(F)cn2)cc1Nc1ccc(C2CC2)cc1N(C)S(C)(=O)=O", "Target Of Assay": "EPO-induced JAK2 signal pathway", "IC50": "> 10 µM"}
{"Compound": "CONC(=O)c1cnc(NC(=O)C2CC2)cc1Nc1ccc2cnn(C)c2c1", "Target Of Assay": "EPO-induced JAK2 signal pathway", "IC50": "> 10 µM"}
{"Compound": "CONC(=O)c1cnc(NC(=O)C2CC2)cc1Nc1cccc(C(F)(F)F)c1N(C)S(C)(=O)=O", "Target Of Assay": "EPO-induced JAK2 signal pathway", "IC50": "> 10 µM"}
{"Compound": "CCONC(=O)c1cnc(Nc2cc(C)nc(C)n2)cc1Nc1cc(C)c(C2CC2)cc1N(C)S(C)(=O)=O", "Target Of Assay": "EPO-induced JAK2 signal pathway", "IC50": "> 10 µM"}
{"Compound": "CONC(=O)c1cnc(NC(=O)C2CC2)cc1Nc1cccc(-c2cnn(C)c2)c1C#N", "Target Of Assay": "EPO-induced JAK2 signal pathway", "IC50": "> 10 µM"}
{"Compound": "CCONC(=O)c1cnc(Nc2cc(C)nc(C)n2)cc1Nc1cc(F)cc(-c2ncc(C)cn2)c1OC", "Target Of Assay": "EPO-induced JAK2 signal pathway", "IC50": "> 10 µM"}
{"Compound": "CCONC(=O)c1cnc(Nc2ccc(C3CC3)cn2)cc1Nc1ccc(OC)cc1N(C)S(C)(=O)=O", "Target Of Assay": "EPO-induced JAK2 signal pathway", "IC50": "> 10 µM"}
{"Compound": "C#Cc1ccc(Nc2cc(Nc3ccc(C4CC4)cn3)ncc2C(=O)NOCC)c(N(C)S(C)(=O)=O)c1", "Target Of Assay": "EPO-induced JAK2 signal pathway", "IC50": "> 10 µM"}
{"Compound": "CCONC(=O)c1cnc(Nc2ccc(OC)cn2)cc1Nc1ccc(C2CC2)cc1N(C)S(C)(=O)=O", "Target Of Assay": "EPO-induced JAK2 signal pathway", "IC50": "> 10 µM"}
{"Compound": "CCONC(=O)c1cnc(Nc2ncc(F)cc2F)cc1Nc1cc(F)cc(-c2ncc(F)cn2)c1OC", "Target Of Assay": "EPO-induced JAK2 signal pathway", "IC50": "> 10 µM"}
{"Compound": "CONC(=O)c1cnc(NC(=O)C2CC2)cc1Nc1ccc(OCC2CC2)cc1N(C)S(C)(=O)=O", "Target Of Assay": "EPO-induced JAK2 signal pathway", "IC50": "> 10 µM"}
